Sourced from PubChem BioAssay (NCATS)

- Assay Protocol: NFAT Signaling Pathway (AID 444);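 further: carbachol stimulus at about its EC50 of 1 µM final; on the % scale 0 is the no-effect control and ±100 the full control effect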
- Experimental Setup: Jurkat NFAT-bla M1, carbachol, beta-lactamase ratio, 5 h; at 17.2 µM (top of the series) unless noted
Records with an inconclusive call do not appear.
# activity change, negative = inhibition annotations
Report the figure in % without appending any unit label.

> print(dat)
                          molecule                              observable  unit.string  quantitative.result
1  CC(=O)c1cc2c(=O)c3ccccc3oc2nc1C  activity change, negative = inhibition            %                -16.9

Need activity change, negative = inhibition, item COC1=CC(=O)CC(C)C12Oc1c(Cl)c(OC)cc(OC)c1C2=O (stereo not drawn) -12.3

Need activity change, negative = inhibition, item CN1CCN(/C=N/c2sc3c(c2C#N)CCCCC3)CC1 11.9

Need activity change, negative = inhibition, item C=CCOc1nc2c(c(=O)n(Cc3ccc(Cl)c(Cl)c3)c(=O)n2C)n1C -2.4

Need activity change, negative = inhibition, item CC(=O)C1=C(O)C(=O)N(c2cccc(C(=O)O)c2)C1c1ccc(F)cc1 (stereo not drawn) 2.04

Need activity change, negative = inhibition, item CCN(CC)CCN1C(=O)C(=O)/C(=C(/O)c2c(C)[nH]c(C(=O)OC)c2C)C1c1ccccc1 (stereo not drawn) -8.53
